This collection of values is drawn from patent US20170066831A1.

TARGET: T1, human ST2L extracellular domain with C-terminal His6 tag (human, UniProt Q01638 19-328)
T1 construct: also called huST2L-ECD; ST2L-ECD
T1 sequence: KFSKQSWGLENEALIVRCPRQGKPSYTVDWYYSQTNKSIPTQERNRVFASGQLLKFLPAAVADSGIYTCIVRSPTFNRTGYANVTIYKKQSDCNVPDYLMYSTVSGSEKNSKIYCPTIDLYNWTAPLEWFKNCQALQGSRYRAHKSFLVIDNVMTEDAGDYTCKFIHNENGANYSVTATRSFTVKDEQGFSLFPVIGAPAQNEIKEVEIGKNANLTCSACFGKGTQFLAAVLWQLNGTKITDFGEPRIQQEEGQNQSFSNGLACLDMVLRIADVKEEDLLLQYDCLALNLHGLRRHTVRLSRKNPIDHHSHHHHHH
ASSAY TEXT: ProteOn SPR, mAb captured, ST2L-ECD in solution
Consider the following binders and their measured pKd readings.
Scale note: pKd = -log10(concentration in M).

1. STLM205 (antibody, V domains shown, C2494 HFA mAb: VH STLH194 + VL STLL272 (O18)) VH: EVQLVQSGAEVKKPGATVKISCKVSAFNIKDDYMHWVQQAPGKGLEWMGRIDPAIGNTEYAEKFQGRVTITADTSTDTAYMELSSLRSEDTAVYYCATGDFYAMDYWGQGTLVTVSS VL: DIQMTQSPSSLSASVGDRVTITCITNTDIDDVIHWYQQKPGKAPKLLIYEGNTLRPGVPSRFSGSGSGTDFTFTISSLQPEDIATYYCLQSDNMLTFGQGTKLEIK	10.40

The value of pKd measured for the binder STLM200 (antibody, V domains shown, C2494 HFA mAb: VH STLH194 + VL STLL277 (L8)) VH: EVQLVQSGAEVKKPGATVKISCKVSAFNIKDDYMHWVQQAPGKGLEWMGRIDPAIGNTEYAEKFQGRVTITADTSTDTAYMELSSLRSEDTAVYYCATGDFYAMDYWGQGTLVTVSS VL: DIQLTQSPSFLSASVGDRVTITCITNTDIDDVIHWYQQKPGKAPKLLIYEGNTLRPGVPSRFSGSGSGTEFTLTISSLQPEDFATYYCLQSDNMLTFGQGTKLEIK turned out to be 10.22
